pKi values by entry
Target: JNK3 (Homo sapiens, UniProt P53779)
Construct: One such construct encodes amino acid residues Ser40-Glu402 of JNK3α1 and is preceded by Met and Gly residues; Met-Gly dipeptide (initiation Met plus Gly added for the NcoI site) (N)
Sequence (P53779 40-402): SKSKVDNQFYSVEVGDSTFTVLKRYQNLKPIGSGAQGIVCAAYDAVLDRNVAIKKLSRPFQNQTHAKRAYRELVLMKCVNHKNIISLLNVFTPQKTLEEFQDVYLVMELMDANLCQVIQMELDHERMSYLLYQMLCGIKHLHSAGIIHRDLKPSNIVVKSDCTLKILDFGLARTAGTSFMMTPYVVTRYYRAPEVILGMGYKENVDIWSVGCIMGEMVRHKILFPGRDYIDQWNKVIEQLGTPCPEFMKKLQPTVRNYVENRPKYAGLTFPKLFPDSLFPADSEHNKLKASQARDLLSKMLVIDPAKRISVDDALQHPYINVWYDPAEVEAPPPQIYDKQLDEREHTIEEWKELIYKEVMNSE
Experiment: JNK inhibition assay (spectrophotometric coupled-enzyme assay)
Conditions: activated JNK3 10 nM, 10 μM ATP, 30° C.; read-out: JNK3 Activity (Ki rating)
pKi: −log10 of the molar value.
Measured metric: pKi

1) Cn1c(-c2ccnc(Nc3cccc(Br)c3)n2)cnc1-c1cccnc1 [IIa-20]
6.00 to 7.00
2) COc1cccc(Nc2nccc(-c3cnc(-c4ccccc4)o3)n2)c1 [IIb-3]
6.00 to 7.00
3) Clc1ccc(Nc2nccc(-c3cnc(Cc4c(Cl)cccc4Cl)[nH]3)n2)cc1 [IIa-23]
6.00 to 7.00
4) COc1cccc(Nc2nccc(-c3cnc(Cc4c(Cl)cccc4Cl)[nH]3)n2)c1 [IIa-25]
> 7.00
5) Cc1nc(-c2cccs2)sc1-c1ccnc(Nc2ccc(S(N)(=O)=O)cc2)n1 [IIc-22]
> 7.00

* * *

Molecular target: JNK3 (Homo sapiens, UniProt P53779)
Construct: One such construct encodes amino acid residues Ser40-Glu402 of JNK3α1 and is preceded by Met and Gly residues; Met-Gly dipeptide (initiation Met plus Gly added for the NcoI site) (N)
Test: JNK inhibition assay (spectrophotometric coupled-enzyme assay)
Conditions: activated JNK3 10 nM, 10 μM ATP, 30° C.; read-out: JNK3 Activity (Ki rating)
Measured metric: Ki

1. COCn1c(-c2ccnc(Nc3cc(OC)cc(OC)c3)n2)cnc1-c1ccccc1 [IIa-15]
> 1000 nM
2. COCn1c(-c2ccnc(Nc3ccc([N+](=O)[O-])cc3)n2)cnc1-c1ccccc1 [IIa-13]
> 1000 nM
3. Clc1cccc(Cl)c1Cc1ncc(-c2ccnc(Nc3cccc(Br)c3)n2)[nH]1 [IIa-27]
100 to 1000 nM
4. COc1cc(Nc2nccc(-c3cnc(Cc4c(Cl)cccc4Cl)[nH]3)n2)cc(OC)c1 [IIa-26]
100 to 1000 nM
5. COc1cc(Nc2nccc(-c3cnc(-c4ccccc4)o3)n2)cc(OC)c1 [IIb-4]
100 to 1000 nM
6. Cc1nc(-c2cccs2)sc1-c1ccnc(Nc2ccc(Cl)cc2)n1 [IIc-24]
> 1000 nM
7. c1ccc(Nc2nccc(-c3cnc(-c4ccccc4)o3)n2)cc1 [IIb-5]
100 to 1000 nM

* * *

Molecular target: human Src kinase (Homo sapiens, UniProt P12931)
Construct: full length recombinant human Src kinase (from Upstate Biotechnology, cat. no. 14-117)
Sequence (P12931 whole entry): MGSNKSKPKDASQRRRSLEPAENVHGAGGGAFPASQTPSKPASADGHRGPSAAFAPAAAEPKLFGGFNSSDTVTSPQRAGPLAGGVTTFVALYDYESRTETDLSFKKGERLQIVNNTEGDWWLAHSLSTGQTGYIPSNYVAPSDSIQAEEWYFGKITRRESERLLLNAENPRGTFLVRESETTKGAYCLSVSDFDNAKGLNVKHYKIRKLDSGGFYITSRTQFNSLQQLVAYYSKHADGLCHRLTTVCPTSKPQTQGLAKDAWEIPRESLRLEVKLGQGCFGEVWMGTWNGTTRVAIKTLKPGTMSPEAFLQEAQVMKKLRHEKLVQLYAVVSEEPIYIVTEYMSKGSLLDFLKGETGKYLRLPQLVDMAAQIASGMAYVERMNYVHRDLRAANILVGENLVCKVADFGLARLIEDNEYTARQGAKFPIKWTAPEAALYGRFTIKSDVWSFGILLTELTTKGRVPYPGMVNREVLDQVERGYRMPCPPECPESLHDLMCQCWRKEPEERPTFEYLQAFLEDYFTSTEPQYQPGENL
Test: Src inhibition assay (radioactivity-based assay A or spectrophotometric assay B)
Measured metric: Ki

1. Cc1nc(-c2cccs2)sc1-c1ccnc(Nc2ccc(S(N)(=O)=O)cc2)n1
< 100 nM

* * *

Catalogue of pKi readings, one per entry.
Target: JNK3 (Homo sapiens, UniProt P53779)
Construct: One such construct encodes amino acid residues Ser40-Glu402 of JNK3α1 and is preceded by Met and Gly residues; Met-Gly dipeptide (initiation Met plus Gly added for the NcoI site) (N)
Test: JNK inhibition assay (spectrophotometric coupled-enzyme assay)
Details: activated JNK3 10 nM, 10 μM ATP, 30° C.; read-out: JNK3 Activity (Ki rating)
pKi: −log10 of the molar value.
Measured metric: pKi

1. c1ccc(COc2cccc(Nc3nccc(-c4cnc(-c5ccccc5)o4)n3)c2)cc1
6.00 to 7.00
2. Clc1ccc(Nc2nccc(-c3cnc(-c4ccccc4)o3)n2)cc1
< 6.00
3. O=[N+]([O-])c1ccc(Nc2nccc(-c3cnc(Cc4c(Cl)cccc4Cl)[nH]3)n2)cc1
6.00 to 7.00
4. Cn1c(-c2ccnc(Nc3ccc([N+](=O)[O-])cc3)n2)cnc1-c1cccnc1
6.00 to 7.00
5. COCn1c(-c2ccnc(Nc3ccccc3)n2)cnc1-c1ccccc1
< 6.00
6. Cc1nc(-c2cccs2)sc1-c1ccnc(Nc2ccc([N+](=O)[O-])cc2)n1
< 6.00
7. COC(=O)c1cccc(Nc2nccc(-c3cnc(Cc4c(Cl)cccc4Cl)[nH]3)n2)c1
6.00 to 7.00
8. COCn1c(-c2ccnc(Nc3cccc(OCc4ccccc4)c3)n2)cnc1-c1ccccc1
< 6.00
9. O=[N+]([O-])c1ccc(Nc2nccc(-c3cnc(-c4ccccc4)o3)n2)cc1
6.00 to 7.00
